assay: Displacement of [3H]MLA from alpha7* nAChR in Sprague-Dawley rat brain P2 membrane after 180 mins by liquid scintillation counting
Ki values by entry

**Q:** Reported Ki for CCCCCCCCCCCCn1cc(C[N+](C)(C)C)c2ccccc21 : what is it?
**A:** > 10 µM

**Q:** Look up Ki for this molecule: CN1CCC[C@H]1c1cccnc1 [NICOTINE]
**A:** 0.129 µM

**Q:** What Ki value was documented for this molecule, Cn1cc(CC[N+](C)(C)C)c2ccccc21 ?
**A:** > 10 µM

**Q:** Requested read-out: Ki. Entry: CCCCCCCCCCCCn1cc(CN(C)C)c2ccccc21
**A:** > 10 µM

**Q:** Requested read-out: Ki. Entry: C=CCn1cc(CCN(C)C)c2ccccc21
**A:** > 10 µM
